Cited source for all entries: patent US20240270701A1

target: B1-AR (Homo sapiens, UniProt P08588); construct: expressed in transfected cells; host or cells: CHO-K1; experiment: cAMP Gs dynamic HTRF assay, cells expressing beta-adrenergic receptor (CHO-K1), B1-AR; assay type: cell-based; details: cAMP HTRF, read-out: pEC50 [B1-AR] (converted)
Sequence (P08588 whole entry, species assumed): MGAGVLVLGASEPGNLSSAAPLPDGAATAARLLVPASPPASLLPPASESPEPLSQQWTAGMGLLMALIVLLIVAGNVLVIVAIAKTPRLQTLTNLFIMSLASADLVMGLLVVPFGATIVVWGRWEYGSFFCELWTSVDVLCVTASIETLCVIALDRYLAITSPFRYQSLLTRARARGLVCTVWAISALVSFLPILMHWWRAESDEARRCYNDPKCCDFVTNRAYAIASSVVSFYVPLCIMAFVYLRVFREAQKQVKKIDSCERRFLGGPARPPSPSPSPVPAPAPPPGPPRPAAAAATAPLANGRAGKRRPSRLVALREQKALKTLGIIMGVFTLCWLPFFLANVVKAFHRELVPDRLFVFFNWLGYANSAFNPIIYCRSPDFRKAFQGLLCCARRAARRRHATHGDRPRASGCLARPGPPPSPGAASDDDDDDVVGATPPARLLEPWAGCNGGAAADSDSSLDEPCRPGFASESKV
ASSAY READOUT: EC50

// solved cases for EC50 follow
The recorded EC50 for entry CC(C)[C@@H](C)NC[C@H](O)c1cccc2[nH]ncc12 equals < 10 nM

The recorded EC50 for Cc1cc2ncccc2cc1[C@@H](O)CNC(C)(C)C is > 1000 nM

// O[C@@H](CNC1CC1)c1ccc(Cl)c2[nH]ncc12 : EC50 value = < 10 nM

Recorded result, CCC(CC)NC[C@H](O)c1cccc2[nH]ncc12 , EC50: 10 to 100 nM

Noted for CCC(CC)NC[C@H](O)c1ccc(F)c2[nH]ncc12 : its EC50 reads 10 to 100 nM

Note: attention shifts to another entry.
For CC(C)c1cc([C@@H](O)CNC(C)(C)C)c2cn[nH]c2c1 the compound record lists EC50 as > 1000 nM
